# assay_remarks: Inhibition of Plasmodium falciparum falcipain-2 after 12 hrs by fluorescence spectroscopy-based on-bead assay
# Parameters: concentration or dose not given beside the values
# measurement_parameters: concentration not given here
Peptide text beside a SMILES is read from it.
The following compounds are listed with their measured inhibition values.
Write it as a number; the unit % goes unstated.

inhibition in this record for CC[C@H](C)[C@H](NC(=O)[C@H](CC(N)=O)NC(=O)/C=C/C(=O)NCC(=O)NCC(=O)N[C@@H](Cc1ccccc1)C(=O)O)C(=O)N[C@@H](C)C(=O)N[C@H](C(N)=O)C(C)C (HELM PEPTIDE1{[O=C(/C=C/C(=O)[*:2])NCC(=O)NCC(=O)N[C@@H](Cc1ccccc1)C(=O)O].N.I.A.V.[am]}$$$$V2.0) : 63

Values compiled from ChEMBL document CHEMBL1155459.
